The values you see were collected from ChEMBL document CHEMBL5665443.

Target: UniProtKB Q9UIF7
Sequence (Q9UIF7 whole entry): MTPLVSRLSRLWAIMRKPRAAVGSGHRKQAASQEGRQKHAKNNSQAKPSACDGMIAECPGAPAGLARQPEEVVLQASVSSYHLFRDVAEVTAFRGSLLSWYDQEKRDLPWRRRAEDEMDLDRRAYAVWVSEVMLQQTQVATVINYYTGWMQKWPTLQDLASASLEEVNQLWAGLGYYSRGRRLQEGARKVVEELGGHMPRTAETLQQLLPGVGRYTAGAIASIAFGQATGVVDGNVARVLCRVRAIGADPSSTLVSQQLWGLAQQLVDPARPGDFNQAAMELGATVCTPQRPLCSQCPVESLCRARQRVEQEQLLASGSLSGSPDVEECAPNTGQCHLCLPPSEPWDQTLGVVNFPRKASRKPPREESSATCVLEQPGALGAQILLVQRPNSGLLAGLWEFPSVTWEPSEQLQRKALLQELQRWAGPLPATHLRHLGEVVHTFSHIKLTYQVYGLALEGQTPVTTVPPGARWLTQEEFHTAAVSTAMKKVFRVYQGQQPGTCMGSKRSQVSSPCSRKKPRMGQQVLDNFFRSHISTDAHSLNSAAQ
Condition context: Compound Concentration 10.0 uM, Hit No
Description: Inhibition of MUTYH by quantifying inhibition of MUTYH-mediated cleavage and dissociation of quenched duplex DNA oligonucleotides, measured as fluorescence at 594 nm. To generate a functional strand incision and increase turn-over this assay is coupled to APE1.
Measurement name: inhibition (%)
Report the value in % with no unit label.

Give the value of inhibition reported for the following: Cc1cccc(C2CN(C)CCc3c2cc(O)c(O)c3Cl)c1 (stereo not given)
33.4

====

inhibition reference
Target: Endonuclease 8-like 2 (Homo sapiens) (UniProt Q969S2);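 also: fluorescence at 594 nm reports NEIL2 cutting and release of a quenched double-stranded DNA oligo substrate, reduced signal read as inhibition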
Sequence (Q969S2 whole entry): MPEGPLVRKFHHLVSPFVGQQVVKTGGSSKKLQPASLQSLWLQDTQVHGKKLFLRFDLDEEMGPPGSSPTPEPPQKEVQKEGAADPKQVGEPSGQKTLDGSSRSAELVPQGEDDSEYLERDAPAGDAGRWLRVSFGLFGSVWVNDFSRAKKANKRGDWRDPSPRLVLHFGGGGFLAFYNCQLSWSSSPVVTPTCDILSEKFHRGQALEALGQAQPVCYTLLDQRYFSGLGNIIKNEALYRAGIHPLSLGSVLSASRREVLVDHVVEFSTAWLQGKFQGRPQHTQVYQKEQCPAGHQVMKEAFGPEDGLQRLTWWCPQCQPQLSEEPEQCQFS
Condition context: Compound Concentration 10.0 uM, Hit No
Description: Inhibition of NEIL2 by quantifying inhibition of NEIL2-mediated cleavage and dissociation of quenched duplex DNA oligonucleotides, measured as fluorescence at 594 nm.
Reply numerically in %, unit not repeated.

O=C(O)CC/C=C\C[C@@H]1CO[C@H](c2ccccc2Cl)O[C@@H]1c1ccccc1O: 0.265

Give a short answer stating reported inhibition for Cc1ccc(O)c([C@H](CCN(C(C)C)C(C)C)c2ccccc2)c1 .
2.01

Read the entry C[C@H](NC(=O)Cc1ccc(-c2ccc3cccnc3n2)cc1)c1ccc(-c2ccc(F)c(C(F)(F)F)c2)cc1 and write its reported inhibition.
-4.68

Please give the documented inhibition of Cn1cc(C(=O)O)c2ccc(N3CCC(OCc4c(-c5c(Cl)cccc5Cl)noc4C4CC4)CC3)cc21
0.531

State its inhibition: CC[C@@H](Nc1c(C#N)c(-c2ccc(-c3cccc(C)c3F)cc2)nc2cnccc12)C(=O)O
3.25
